Cited source for all entries: patent US20220380463A1

# System under test: T1, Cynomolgus CD3εδ Fc heterodimer (Cy CD3ε Fc / CD3δ Fc-HIS) (cynomolgus, UniProt Q95LI8 22-100)
# T1 chain 1: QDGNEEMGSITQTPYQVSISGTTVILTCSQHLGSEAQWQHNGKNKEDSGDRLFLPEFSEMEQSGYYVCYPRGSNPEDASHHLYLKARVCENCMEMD
# T1 chain 2: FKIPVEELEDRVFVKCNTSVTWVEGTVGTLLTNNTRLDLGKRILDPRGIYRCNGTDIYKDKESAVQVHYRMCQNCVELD
# Assay explanation: BLI (Octet), IgG on AHC sensor, pH 6.0
koff reference
Kindly write the number and append the unit.

Answered examples (2):
Binder	koff
SAD10319_P06_E10 (ADI-57428) (antibody, V domains shown, IgG; also called Ab157) VH: QVQLVQSGAEVKKPGASVKVSCKASGYTFTQYDMHWVRQAPGQTLEWMGDINAGTGVTVYSQKFQGRVTITRDTSASTAYMELSSLRSEDTAVYYCARDAYGRYFYDVWGQGTLVTVSS VL: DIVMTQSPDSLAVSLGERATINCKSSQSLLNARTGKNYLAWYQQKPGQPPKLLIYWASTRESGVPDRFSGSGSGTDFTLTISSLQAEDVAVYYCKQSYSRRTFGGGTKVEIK	0.00575 s⁻¹
SAD10318_P04_G12 (ADI-57296) (antibody, V domains shown, IgG; also called Ab227) VH: QVQLVQSGAEVKKPGASVKVSCKASGFNIKDYYMHWVRQAPGQRLEWMGWIDLENANTIYDAKFQGRVTITRDTSASTAYMELSSLRSEDTAVYYCARDAYGHYHYDVWGQGTLVTVSS VL: DIVMTQSPDSLAVSLGERATINCKSSQSLLNAHTGKNHLAWYQQKPGQPPKLLIYWASTRESGVPDRFSGSGSGTDFTLTISSLQAEDVAVYYCKQSYSRRTFGGGTKVEIK	0.0025 s⁻¹

Let us examine a further case.
Q: Consider the binder SAD10320_P02_A04 (ADI-57360) (antibody, V domains shown, IgG; also called Ab68) VH: QVQLVQSGAEVKKPGASVKVSCKASGFNIKDYYMHWVRQAPGQRLEWMGWIDLENANTIYDAKFQGRVTITRDTSASTAYMELSSLRSEDTAVYYCARDAYGHAFYDVWGQGTLVTVSS VL: DIVMTQSPDSLAVSLGERATINCKSSQSLLNARTGKNYLAWYQQKPGQPPKLLIYWASTRESGVPDRFSGSGSGTDFTLTISSLQAEDVAVYYCKQSLHRRTFGGGTKVEIK and give its measured koff.
Result: 0.0182 s⁻¹
